# assay procedure: A CellTox Green Cytotoxicity Assay to monitor cytotoxicity in HepG2 cells - 24 hour (AID 1224878); further: nearly all actives have a fitted effect of over 45% in size; further: potency means the concentration at half of the fitted maximal effect
# cond: CellTox Green fluorescence; series mostly up to 76.8 µM
Records with an inconclusive call do not appear. Activity calls are given as the source filed them. The call rests on the fitted dose curve; in most records, active means well fitted activation curve with a large enough effect in the repeat runs; inconclusive means weak or mixed curves; inactive means flat fitted curve, though single readings scatter.
quantity measured: Potency

[
  {
    "compound": "CCCOc1ccc2c(c1)CC[C@@H]1[C@@H]2CC[C@]2(C)C(OC)CC[C@@H]12 (stereo partly drawn)",
    "Potency": "inactive"
  },
  {
    "compound": "CC(C)=CCC[C@](C)(O)[C@@H]1CC=C(C)CC1",
    "Potency": "43.6 µM (active)"
  },
  {
    "compound": "CCN(CC)CC1CCCCN1CC(=O)N1c2ccccc2C(=O)Nc2cccnc21 (stereo not drawn)",
    "Potency": "inactive"
  },
  {
    "compound": "CC1(O)CSC(C)(O)CS1 (stereo not drawn)",
    "Potency": "inactive"
  },
  {
    "compound": "C=CC(C)(O)CC/C=C(\\C)CCC=C(C)C (stereo not drawn)",
    "Potency": "21.9 µM (active)"
  }
]

Which Potency value belongs to `CC1=C(CC(=O)O)c2cc(F)ccc2/C1=C\c1ccc(S(C)(=O)=O)cc1` ?
inactive

Which Potency is reported for this compound? `NS(=O)(=O)c1cc(-c2nn[nH]n2)c(NCc2cccs2)cc1Cl`
inactive

Would you kindly share the measured Potency for CC(C)NCC(O)COc1ccc(CCOCC2CC2)cc1 (stereo not drawn) ?
inactive
